Target: Bcl-2 (Homo sapiens, UniProt P10415, DEL53-91)
Construct: myc- Bcl-2 FP; made in house
Sequence (P10415 with tags, fused parts or gaps DEL53-91): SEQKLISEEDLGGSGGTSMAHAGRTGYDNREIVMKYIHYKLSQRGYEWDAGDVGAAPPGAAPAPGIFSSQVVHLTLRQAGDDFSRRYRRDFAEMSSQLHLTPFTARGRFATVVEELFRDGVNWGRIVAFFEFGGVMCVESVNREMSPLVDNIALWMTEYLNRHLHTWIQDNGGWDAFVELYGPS
Experiment: Fluorescence polarization direct binding
Conditions: benchmark classification of peptides newly characterized in this study; read-out: Binder class, Bcl-2
pKd: −log10 of the molar value. No end group written: not given here.
MEASURED_QUANTITY: pKd

Some substances with recorded pKd:
SYMVLAPVFGYLGDRYNRKYLMA-NH2 [SPNS1]: > 6.00
RSMVFARHLREVGDEFRSRHLNS-NH2 [POFUT2]: > 6.00
AWGKFGGAFARYADEMKEIQERQ-NH2 [PURB]: > 6.00

Prompt line: Which pKd value belongs to ATKRETAATFLKKVAKEFGFQNNGFS-NH2 [NPLOC4] ?
Response line: < 5.00

Prompt line: Which pKd value belongs to DARDYAVVLRKYADKIYSISMKH-NH2 [FOLH1] ?
Response line: < 5.00

Prompt line: Which pKd value belongs to ELQELARKLQELADASENLLTEN-NH2 [TXNDC11] ?
Response line: > 6.00

Prompt line: Which pKd value belongs to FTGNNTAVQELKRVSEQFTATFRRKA-NH2 [TUBB4Q] ?
Response line: 5.00 to 6.00

---

Biological target: Bcl-w (Homo sapiens, UniProt Q92843, Q133R)
Construct: myc-Bcl-w SPOT array & FP; made in house
Sequence (Q92843 with tags, fused parts or gaps Q133R): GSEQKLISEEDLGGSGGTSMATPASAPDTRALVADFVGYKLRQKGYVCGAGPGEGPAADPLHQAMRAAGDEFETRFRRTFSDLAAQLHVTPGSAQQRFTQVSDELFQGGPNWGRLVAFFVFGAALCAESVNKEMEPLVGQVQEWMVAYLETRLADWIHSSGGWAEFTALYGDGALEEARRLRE
Test: Fluorescence polarization direct binding
Conditions: FP direct binding; 10 nM FAM-labeled peptide, receptor titrated; 25°C, pH 7.8; fit of all replicate titrations; X+number in a cell = highest concentration (nM) measured with no binding detected, given here as >; SPNS1 fit to raw fluorescence; read-out: Best-fit KD, Bcl-w
No end group written: not given here.
MEASURED_QUANTITY: Kd

Some substances with recorded Kd:
THEEVVHLLRNAGDEVTITVEYL-NH2 [SNTG2]: > 6560 nM
APYYLSRNLKQQADIIFMPYNYL-NH2 [RTEL1]: > 100000 nM

Prompt line: Which Kd value belongs to QRKHEGFERDLAALGDKVNSLGETAE-NH2 [SPTAN1] ?
Response line: > 4350 nM

---

Measured Kd, listed per entry for reference.
Target: Mcl-1 (Homo sapiens)
Construct: myc-Mcl-1 SPOT array & FP; made in house
Sequence (Q07820 with tags, fused parts or gaps): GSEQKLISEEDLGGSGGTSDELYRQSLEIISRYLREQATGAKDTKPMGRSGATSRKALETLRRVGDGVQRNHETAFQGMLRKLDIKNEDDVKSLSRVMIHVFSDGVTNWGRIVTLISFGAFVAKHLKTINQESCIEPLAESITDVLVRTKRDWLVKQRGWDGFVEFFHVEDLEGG
Assay: Fluorescence polarization direct binding
Settings: FP direct binding; 10 nM FAM-labeled peptide, receptor titrated; 25°C, pH 7.8; fit of all replicate titrations; X+number in a cell = highest concentration (nM) measured with no binding detected, given here as >; SPNS1 fit to raw fluorescence
No end group written: not given here.

Some substances with recorded Kd:
AWGKFGGAFARYADEMKEIQERQ-NH2 [PURB]: > 4000 nM
LSDGLPVHLANIADELTQKKKMF-NH2 [AGBL2]: > 5030 nM

Prompt line: Which Kd value belongs to RSMVFARHLREVGDEFRSRHLNS-NH2 [POFUT2] ?
Response line: > 10000 nM

Prompt line: Which Kd value belongs to KKMTLSEIYRWIADNFPYYKNAG-NH2 [FOXJ2] ?
Response line: > 10000 nM

Prompt line: Which Kd value belongs to ATRRLSGFLRTLADRLEGTKELL-NH2 [MINA] ?
Response line: > 10000 nM

Prompt line: Which Kd value belongs to APYYLSRNLKQQADIIFMPYNYL-NH2 [RTEL1] ?
Response line: > 4000 nM

Prompt line: Which Kd value belongs to LMARPAVALHFQSIADGFKEAVRYVL-NH2 [SOS2] ?
Response line: > 4000 nM

Prompt line: Which Kd value belongs to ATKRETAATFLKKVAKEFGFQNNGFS-NH2 [NPLOC4] ?
Response line: > 4000 nM

Prompt line: Which Kd value belongs to PILENPEILRKTADDFLNRIALT-NH2 [CCH] ?
Response line: > 4000 nM

Prompt line: Which Kd value belongs to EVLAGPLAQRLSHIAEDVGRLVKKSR-NH2 [ARHGAP4] ?
Response line: > 2430 nM

Prompt line: Which Kd value belongs to AIRPRAVELRHLADDFINGNKKK-NH2 [MCF2L2] ?
Response line: > 4000 nM

Attribution: paper PMC4072508
